# test-method-notes: UV thermal melting temperatures of TNA 12-mer duplexes
# Type: physicochemical
# condition: TNA 12-mer duplexes, 2.0 μM each strand, 1×PBS, pH 7.4
d = 2'-deoxy (DNA); r = 2'-OH (RNA); f = 2'-fluoro
quantity-name: Tm (° C.) (°C)

INSERT INTO assay_data (substance, assay_value) VALUES
  ('AD-649426.1 (sense TACAGTCTATGT; antisense ACATAGACTGTA; sense: sugars from the 5'' end d6 f1 d5, backbone not given here; antisense: sugars from the 5'' end d5 f1 d6, backbone not given here)', 42.77),
  ('AD-649415.1 (sense UACAGUCUAUGU; antisense ACAUAGACUGUA; sense: sugars from the 5'' end r5 f1 r6, backbone not given here; antisense: sugars from the 5'' end r6 f1 r5, backbone not given here)', 54.22),
  ('AD-649422.1 (sense TACAGTCTATGT; antisense ACATAGACTGTA; sense: DNA, backbone not given here; antisense: sugars from the 5'' end d6 f1 d5, backbone not given here)', 42.27);

###

# test-method-notes: UV thermal melting temperatures of mUNA 12-mer duplexes
# Format: physicochemical
# condition: mUNA 12-mer duplexes, 2.0 μM each strand, 8×PBS, pH 7.4
[UNA] = unlocked nucleic acid; r = 2'-OH (RNA)
quantity-name: Tm (° C.)b (°C)

INSERT INTO measurements (substance, quantity_name, units_text, assay_value) VALUES
  ('AD-511246.1 (sense UACAGUCUAUGU; antisense ACATAGACTGTA; sense: chemistry not given here; antisense: DNA, backbone not given here; sense strand has one mUNA-type uridine (Uun))', 'Tm (° C.)b', '°C', 24.6),
  ('AD-511237.1 (sense UACAGUCUAUGU; antisense ACATAGACTGTA; sense: RNA, backbone not given here; antisense: DNA, backbone not given here)', 'Tm (° C.)b', '°C', 45.1),
  ('AD-511227.1 (sense UACAGUCUAUGU; antisense ACAUAGACUGUA; sense: sugars from the 5'' end r5 [UNA]1 r6, backbone not given here; antisense: RNA, backbone not given here)', 'Tm (° C.)b', '°C', 43.6),
  ('AD-511236.1 (sense TACAGUCTATGT; antisense ACATAGACTGTA; sense: chemistry not given here; antisense: DNA, backbone not given here; sense strand has one mUNA-type uridine (Uun))', 'Tm (° C.)b', '°C', 23.6);

Value source: patent US20250207131A1
